# ASSAY_SYSTEM: C3aR (Homo sapiens, UniProt Q16581)
# Construct: peripheral blood mononuclear cells were isolated from buffy coat (obtained from Australian Red Cross Blood Service, Kelvin Grove); endogenous in cells; host or cells: primary human monocyte-derived macrophages (HMDM) differentiated from CD14+ monocytes of donor buffy coat
# METHOD_DESCRIPTION: Calcium mobilization assay in HMDM (agonist/antagonist activity)
# Format: cell-based
# CONDITION_LABEL: Table 11; Ca^2+ mobilisation, HMDM; read-out: Apparent Antagonist Activity EC50
Known pEC50 of a selection of compounds
For clarity, pEC50 is expressed as the negative log10 of concentration in mol/L.

compound="CC(C)C[C@H](NC(=O)OC(C)(C)C)c1nc(C(=O)NC(CCCNC(=N)N)C(=O)O)co1 (some centres unmarked)" reported_value=7.72

Lab note: next compound to report on.
Tell us which pEC50 value is on record for `CC[C@H](C)[C@H](NC(=O)OC(C)(C)C)c1nc(C(=O)N[C@@H](CCCNC(=N)N)C(=O)O)c(C)o1` 7.35

---

Known IC50 of a selection of molecules
# ASSAY_SYSTEM: C3aR (Homo sapiens)
# Construct: peripheral blood mononuclear cells were isolated from buffy coat (obtained from Australian Red Cross Blood Service, Kelvin Grove); endogenous in cells; host or cells: primary human monocyte-derived macrophages (HMDM) differentiated from CD14+ monocytes of donor buffy coat
# METHOD_DESCRIPTION: Calcium mobilization assay in HMDM (agonist/antagonist activity)
# Type: cell-based
# CONDITION_LABEL: Table 10; HMDM; read-out: Antagonist Activity Ca^2+ IC50
Report as a plain number; the unit nM is understood.

molecule="Cc1nc(C(c2ccccc2)c2ccccc2)sc1C(=O)N[C@@H](CCCNC(=N)N)C(=O)O [Compound 59]" assay_system="C3aR (Homo sapiens)" metric=IC50 reported_value=1000
molecule="N=C(N)NCCC[C@H](NC(=O)c1sc(C(c2ccccc2)c2ccccc2)nc1-c1ccccc1)C(=O)O [Compound 65]" assay_system="C3aR (Homo sapiens)" metric=IC50 reported_value=67000
molecule="N=C(N)NCCC[C@H](NC(=O)c1ccc(C(c2ccccc2)c2ccccc2)s1)C(=O)O [Compound 60]" assay_system="C3aR (Homo sapiens)" metric=IC50 reported_value=70

Tell us which IC50 value is on record for N=C(N)NCCC[C@H](NC(=O)c1oc(C(c2ccccc2)c2ccccc2)nc1-c1ccccc1)C(=O)O [Compound 66] 2000

---

# ASSAY_SYSTEM: C3a receptor (C3aR) (Homo sapiens)
# Construct: peripheral blood mononuclear cells were isolated from buffy coat (obtained from Australian Red Cross Blood Service, Kelvin Grove); endogenous in cells; host or cells: primary human monocyte-derived macrophages (HMDM) differentiated from CD14+ monocytes of donor buffy coat
# Sequence (Q16581 1-482): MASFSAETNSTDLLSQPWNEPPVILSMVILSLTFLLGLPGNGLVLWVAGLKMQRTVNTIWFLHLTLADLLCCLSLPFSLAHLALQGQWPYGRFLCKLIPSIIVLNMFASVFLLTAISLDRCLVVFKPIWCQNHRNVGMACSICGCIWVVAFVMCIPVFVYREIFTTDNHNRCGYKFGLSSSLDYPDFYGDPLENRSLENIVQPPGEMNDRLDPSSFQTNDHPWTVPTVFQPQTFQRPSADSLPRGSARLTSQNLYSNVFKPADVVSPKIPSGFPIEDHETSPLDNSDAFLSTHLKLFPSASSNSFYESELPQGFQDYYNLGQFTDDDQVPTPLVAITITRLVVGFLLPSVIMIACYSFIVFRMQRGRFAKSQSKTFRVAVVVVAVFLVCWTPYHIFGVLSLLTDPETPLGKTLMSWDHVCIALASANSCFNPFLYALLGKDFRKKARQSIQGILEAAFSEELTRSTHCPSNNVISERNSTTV
# METHOD_DESCRIPTION: Competitive binding with [^125I]-C3a in HMDM
# CONDITION_LABEL: Table 12; read-out: Receptor Binding Affinity IC50
METRIC: IC50 (nM)
Report as a plain number; the unit nM is understood.

compound="Cc1nc(C(c2ccccc2)c2ccccc2)sc1C(=O)N[C@@H](CCCNC(=N)N)C(=O)O [Compound 59]" reading_unit=nM reported_value=91

Lab note: next compound to report on.
Tell us which IC50 value is on record for Cc1nc(C(c2ccccc2)c2ccccc2)oc1C(=O)N[C@@H](CCCNC(=N)N)C(=O)O [Compound 58] 606

---

Known EC50 of a selection of molecules
# ASSAY_SYSTEM: C3aR (Homo sapiens)
# Construct: peripheral blood mononuclear cells were isolated from buffy coat (obtained from Australian Red Cross Blood Service, Kelvin Grove); endogenous in cells; host or cells: primary human monocyte-derived macrophages (HMDM) differentiated from CD14+ monocytes of donor buffy coat
# METHOD_DESCRIPTION: Calcium mobilization assay in HMDM (agonist/antagonist activity)
# Type: cell-based
# CONDITION_LABEL: quoted in text of Example 98; read-out: EC50
Report as a plain number; the unit nM is understood.

Below, each entry is followed by its recorded EC50 result.
molecule=CC[C@H](C)[C@H](NC(=O)OC(C)(C)C)c1nc(C(=O)N[C@@H](CCCNC(=N)N)C(=O)O)co1 reading_unit=nM reported_value=27
molecule="CC(C)C[C@H](NC(=O)OC(C)(C)C)c1nc(C(=O)NC(CCCNC(=N)N)C(=O)O)co1 (stereo partly drawn)" reading_unit=nM reported_value=19

Lab note: next molecule to report on.
Tell us which EC50 value is on record for `CC[C@H](C)[C@H](NC(=O)CCC(=O)c1ccc(-c2ccccc2)cc1)c1nc(C(=O)N[C@@H](CCCNC(=N)N)C(=O)O)co1` 8

---

Known pIC50 of a selection of compounds
# ASSAY_SYSTEM: C3aR (Homo sapiens)
# Construct: peripheral blood mononuclear cells were isolated from buffy coat (obtained from Australian Red Cross Blood Service, Kelvin Grove); endogenous in cells; host or cells: primary human monocyte-derived macrophages (HMDM) differentiated from CD14+ monocytes of donor buffy coat
# METHOD_DESCRIPTION: Calcium mobilization assay in HMDM (agonist/antagonist activity)
# Format: cell-based
# CONDITION_LABEL: Table 13; calcium release from HMDM; read-out: Antagonist Activity IC50
For clarity, pIC50 is expressed as the negative log10 of concentration in mol/L.

compound_structure_string=Cc1nc([C@H](CC(C)C)NC(=O)OC(C)(C)C)sc1C(=O)N[C@@H](CCCNC(=N)N)C(=O)O assay_system="C3aR (Homo sapiens)" reported_value=6.70
compound_structure_string=N#CN=C(N)NCCC[C@H](NC(=O)c1ccc(C(c2ccccc2)c2ccccc2)s1)C(=O)O assay_system="C3aR (Homo sapiens)" reported_value=6.05
compound_structure_string=CC(C)C[C@H](NC(=O)OC(C)(C)C)c1nc(C(=O)N[C@@H](CCCNC(=N)N)C(=O)NS(C)(=O)=O)co1 assay_system="C3aR (Homo sapiens)" reported_value=5.70
compound_structure_string=N#CN=C(N)NCCC[C@H](NC(=O)c1ccc(C(c2ccccc2)c2ccccc2)s1)C(=O)NS(=O)(=O)c1ccccc1 assay_system="C3aR (Homo sapiens)" reported_value=5.70
compound_structure_string=N=C(N)NCCC[C@H](NC(=O)c1ccc(C(c2ccccc2)c2ccccc2)s1)C(=O)NS(=O)(=O)c1ccccc1 assay_system="C3aR (Homo sapiens)" reported_value=6.52

Give pIC50 only, for `CC(C)C[C@H](NC(=O)OC(C)(C)C)c1nc(C(=O)N[C@@H](CCCNC(=N)N)C(=O)NS(=O)(=O)c2ccccc2)co1` , using C3aR (Homo sapiens) data. 5.89

---

# ASSAY_SYSTEM: C3aR (Homo sapiens, UniProt Q16581)
# Construct: peripheral blood mononuclear cells were isolated from buffy coat (obtained from Australian Red Cross Blood Service, Kelvin Grove); endogenous in cells; host or cells: primary human monocyte-derived macrophages (HMDM) differentiated from CD14+ monocytes of donor buffy coat
# Sequence (Q16581 1-482): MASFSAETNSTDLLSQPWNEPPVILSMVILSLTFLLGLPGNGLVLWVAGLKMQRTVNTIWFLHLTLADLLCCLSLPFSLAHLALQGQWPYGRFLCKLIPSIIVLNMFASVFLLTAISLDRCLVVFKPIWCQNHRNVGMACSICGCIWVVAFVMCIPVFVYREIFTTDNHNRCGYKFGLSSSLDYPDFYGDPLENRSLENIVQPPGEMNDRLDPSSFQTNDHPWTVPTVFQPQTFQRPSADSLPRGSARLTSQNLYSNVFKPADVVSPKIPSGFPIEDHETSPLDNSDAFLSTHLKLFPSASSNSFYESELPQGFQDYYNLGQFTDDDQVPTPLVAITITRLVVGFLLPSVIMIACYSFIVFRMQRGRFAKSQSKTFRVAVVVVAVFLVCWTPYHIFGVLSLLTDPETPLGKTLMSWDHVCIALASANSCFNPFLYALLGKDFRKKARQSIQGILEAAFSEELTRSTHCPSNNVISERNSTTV
# METHOD_DESCRIPTION: Calcium mobilization assay in HMDM (agonist/antagonist activity)
# Format: cell-based
# CONDITION_LABEL: Table 9; Ca^2+ mobilization, HMDM
METRIC: pEC50 ± SEM
Give the figure by itself; no unit, no explanation.

Below, each entry is followed by its recorded pEC50 ± SEM result.
compound=CC(C)C[C@H](NC(=O)Cc1ccc(F)cc1)c1nc(C(=O)N[C@@H](CCCNC(=N)N)C(=O)O)co1 metric="pEC50 ± SEM" reported_value=6.28
compound=CC[C@H](C)[C@H](NC(=O)c1ccc(OC)cc1OC)c1nc(C(=O)N[C@@H](CCCNC(=N)N)C(=O)O)co1 metric="pEC50 ± SEM" reported_value=6.07

Tell us which pEC50 ± SEM value is on record for NC(N)=NCCC[C@H](NC(=O)COCC(c1ccccc1)c1ccccc1)C(=O)O [SB290157, reference compound] 5.52
